Molecular target: Integrin alpha-4/beta-7 (Homo sapiens, UniProt P13612+P26010)
Sequence (P13612 whole entry): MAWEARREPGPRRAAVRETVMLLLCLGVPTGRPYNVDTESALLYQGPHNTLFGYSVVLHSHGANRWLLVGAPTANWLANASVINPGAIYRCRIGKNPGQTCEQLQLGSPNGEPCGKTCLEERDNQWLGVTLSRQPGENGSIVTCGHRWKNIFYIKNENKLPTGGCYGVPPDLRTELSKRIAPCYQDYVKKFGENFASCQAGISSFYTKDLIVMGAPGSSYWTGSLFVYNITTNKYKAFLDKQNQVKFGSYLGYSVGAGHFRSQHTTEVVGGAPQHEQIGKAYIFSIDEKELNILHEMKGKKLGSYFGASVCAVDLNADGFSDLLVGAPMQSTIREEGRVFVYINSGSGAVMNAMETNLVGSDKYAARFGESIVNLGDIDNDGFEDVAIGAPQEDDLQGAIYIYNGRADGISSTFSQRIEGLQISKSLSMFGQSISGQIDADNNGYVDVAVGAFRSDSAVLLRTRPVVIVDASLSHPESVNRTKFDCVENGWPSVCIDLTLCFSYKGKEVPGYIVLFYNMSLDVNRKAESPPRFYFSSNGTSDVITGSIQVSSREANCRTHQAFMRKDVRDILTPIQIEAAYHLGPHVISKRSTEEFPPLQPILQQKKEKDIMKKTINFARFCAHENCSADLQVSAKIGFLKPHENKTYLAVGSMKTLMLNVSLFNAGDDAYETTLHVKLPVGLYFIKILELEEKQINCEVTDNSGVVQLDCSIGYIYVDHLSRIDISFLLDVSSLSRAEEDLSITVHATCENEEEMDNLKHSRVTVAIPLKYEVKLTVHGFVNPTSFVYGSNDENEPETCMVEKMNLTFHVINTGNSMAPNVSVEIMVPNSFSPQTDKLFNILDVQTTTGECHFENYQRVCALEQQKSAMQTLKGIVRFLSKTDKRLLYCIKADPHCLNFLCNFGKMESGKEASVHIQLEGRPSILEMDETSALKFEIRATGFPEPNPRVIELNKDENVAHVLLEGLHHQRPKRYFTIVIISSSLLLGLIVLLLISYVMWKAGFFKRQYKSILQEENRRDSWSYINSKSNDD
Sequence (P26010 whole entry): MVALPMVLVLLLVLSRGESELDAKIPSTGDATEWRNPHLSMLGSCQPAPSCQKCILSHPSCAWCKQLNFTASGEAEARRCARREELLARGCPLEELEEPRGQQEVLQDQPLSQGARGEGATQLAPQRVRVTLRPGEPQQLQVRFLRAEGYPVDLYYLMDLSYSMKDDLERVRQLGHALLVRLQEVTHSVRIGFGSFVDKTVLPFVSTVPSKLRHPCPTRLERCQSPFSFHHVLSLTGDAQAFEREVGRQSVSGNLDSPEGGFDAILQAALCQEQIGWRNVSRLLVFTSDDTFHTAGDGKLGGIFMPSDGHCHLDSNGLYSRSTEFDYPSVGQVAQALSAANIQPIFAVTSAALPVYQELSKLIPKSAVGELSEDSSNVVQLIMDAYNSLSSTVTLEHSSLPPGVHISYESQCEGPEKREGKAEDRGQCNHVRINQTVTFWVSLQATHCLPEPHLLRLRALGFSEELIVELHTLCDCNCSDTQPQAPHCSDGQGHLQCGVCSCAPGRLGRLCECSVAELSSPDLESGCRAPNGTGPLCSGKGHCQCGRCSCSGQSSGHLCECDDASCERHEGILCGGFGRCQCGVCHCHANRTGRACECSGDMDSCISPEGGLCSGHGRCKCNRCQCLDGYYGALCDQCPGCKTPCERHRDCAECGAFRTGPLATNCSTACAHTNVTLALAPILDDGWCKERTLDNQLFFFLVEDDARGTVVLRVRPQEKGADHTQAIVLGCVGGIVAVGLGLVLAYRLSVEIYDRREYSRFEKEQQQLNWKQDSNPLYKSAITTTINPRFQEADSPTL
Experiment: Ability to block the alpha4-beta7 integrin-MAdCAM-1 binding interaction using a protein ELISA format
READOUT NAME: pIC50
The meaning of pIC50 here: minus log10 of the concentration in molar units.

Lab note: molecule `CC(C)C[C@@H]1NC(=O)[C@H]([C@@H](C)O)NC(=O)[C@H](CC(N)=O)NC(=O)[C@H](CO)NC(=O)[C@H](CCCNC(=N)N)NC(=O)[C@@H](N)CSSC[C@@H](C(=O)O)NC1=O` tested on Integrin alpha-4/beta-7 (Homo sapiens, UniProt P13612+P26010); recorded pIC50 was 4.40
